Values were extracted from the RNAGym collection of RNA variant scans (doi:10.7554/elife.90254).

self-cleavage by entry:
B1: LINE1-full (parent)
chain: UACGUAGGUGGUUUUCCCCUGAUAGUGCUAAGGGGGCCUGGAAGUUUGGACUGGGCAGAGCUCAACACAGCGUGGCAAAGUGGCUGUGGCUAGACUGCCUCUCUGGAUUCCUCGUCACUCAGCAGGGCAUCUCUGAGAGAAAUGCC

- Variants of: B1
- methodSummary: self-cleavage, relative activity (ratio to wild type); higher = more cleavage; in vitro, sequencing; the parent is a self-cleaving ribozyme
Write the value as a bare number.

Reference set (4 entries):
U13G A69U    0.39
U104A U108A    1
U12G A138U    1.02
C17U A140G    1.02

Kindly review the next variant as well.
Give self-cleavage for C19U U81C
1
